From: patent US20260166029A1

Tested on: AN3CA
test_name: Cell Titer Glo 2.0 viability, prexasertib alone or with gemcitabine, three days (Example 11)
Assay type: cell-based
cond: Homo sapiens, AN3-CA, 72 h, gemcitabine 0 nM, read-out: Prexasertib Absolute IC50
quantity_kind: IC50
Include the unit right after the number.

**Q:** Consider the compound shown here: COc1cccc(OCCCN)c1-c1cc(Nc2cnc(C#N)cn2)n[nH]1 [prexasertib] What is its recorded IC50?
**A:** 2.2 nM

====

Test system: OVCAR3
test_name: Cell Titer Glo 2.0 relative cell viability, 72 h (Example 10)
Assay type: cell-based
cond: Homo sapiens, OVCAR-3, OVCAR3 cell line, read-out: Abs IC50
quantity_kind: IC50 (nM)
Supply the numeric figure in nM, leaving out any unit text.

**Q:** I would be grateful if you could share the reported IC50 for COc1cccc(OCCCN)c1-c1cc(Nc2cnc(C#N)cn2)n[nH]1 .
**A:** 0.9

**Q:** Next: C=CCn1c(=O)c2cnc(Nc3ccc(N4CCN(C)CC4)cc3)nc2n1-c1cccc(C(C)(C)O)n1
**A:** 237

**Q:** Same question, C=CCn1c(=O)c2cnc(Nc3ccc(N4CCN(C)CC4)cc3)nc2n1-c1ccc2c(n1)[C@@](O)(CC)CC2 this time
**A:** 233

====

System: U2020
test_name: Cell viability, sensitivity to prexasertib (Example 1)
Assay type: cell-based, human
cond: Homo sapiens; U2020 cell line; reduction in cell viability by 50%
quantity_kind: EC50 (nM)
Lab book: enter the figure in nM, no units written.

**Q:** Using the record for COc1cccc(OCCCN)c1-c1cc(Nc2cnc(C#N)cn2)n[nH]1 , report its EC50.
**A:** 7

====

System: T47D
test_name: Cell Titer Glo 2.0 viability, prexasertib alone or with gemcitabine, three days (Example 11)
Assay type: cell-based
cond: Homo sapiens, 72 h, gemcitabine 0.53 nM, read-out: Prexasertib Relative IC50
quantity_kind: IC50 (nM)
Write the answer as a number in nM, unit excluded.

**Q:** Reported IC50, molecule COc1cccc(OCCCN)c1-c1cc(Nc2cnc(C#N)cn2)n[nH]1 : ____
**A:** 0.22

====

Tested on: AN3CA
test_name: Cell Titer Glo 2.0 viability, prexasertib alone or with gemcitabine, three days (Example 11)
Format: cell-based
cond: Homo sapiens, AN3-CA, 72 h, gemcitabine 0 nM, read-out: Prexasertib Relative IC50
quantity_kind: pIC50
Give only the number. pIC50 is defined as minus log10 of concentration in molar units.

**Q:** Need pIC50, item COc1cccc(OCCCN)c1-c1cc(Nc2cnc(C#N)cn2)n[nH]1
**A:** 8.82

====

Test system: BxPC3
test_name: Cell Titer Glo 2.0 relative cell viability, 72 h (Example 10)
Assay type: cell-based
cond: Homo sapiens, BXPC-3, BxPC3 cell line, read-out: Abs IC50
pIC50 values, listed per item
The scale used: pIC50 is minus the common logarithm of the concentration in molar units.

Worked cases, answers included:
In [3]: df
Out[3]:
                                   molecule  quantity_kind  meas_value
0  C=CCn1c(=O)c2cnc(Nc3ccc(N4CCN(C)CC4)cc3)nc2n1-c1ccc2c(n1)[C@@](O)(CC)CC2 [Azenosertib]          pIC50        6.35
1  COc1cccc(OCCCN)c1-c1cc(Nc2cnc(C#N)cn2)n[nH]1 [prexasertib]          pIC50        8.85

Let us examine a further case.
**Q:** Reported pIC50, molecule C=CCn1c(=O)c2cnc(Nc3ccc(N4CCN(C)CC4)cc3)nc2n1-c1cccc(C(C)(C)O)n1 [Adavosertib] : ____
**A:** 6.44
